Readings of pKd for the listed binders
- system under test: T1, human CD8αα homodimer, recombinant protein (Acro Biosystems) (human, UniProt P01732 22-182)
- T1 construct: also called CD8αα antigen; biotinylated CD8α recombinant protein (CDA-H82E3)
- T1 sequence (P01732 22-182 limits assumed): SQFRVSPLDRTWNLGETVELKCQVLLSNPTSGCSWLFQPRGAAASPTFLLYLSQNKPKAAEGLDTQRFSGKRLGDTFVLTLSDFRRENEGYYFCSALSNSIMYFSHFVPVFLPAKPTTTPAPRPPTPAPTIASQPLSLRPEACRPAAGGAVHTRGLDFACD
- procedure text: BLI steady state, whole hIgG1-LALAPA antibody on CD8α-His (Ni-NTA sensor), 30 °C
pKd is a log-scale quantity: -log10 of the concentration expressed in molar.

For the binder CBD1038-hIgG1-LALAPA (antibody, V domains shown, also called h1017-H4/L3 whole antibody) VH: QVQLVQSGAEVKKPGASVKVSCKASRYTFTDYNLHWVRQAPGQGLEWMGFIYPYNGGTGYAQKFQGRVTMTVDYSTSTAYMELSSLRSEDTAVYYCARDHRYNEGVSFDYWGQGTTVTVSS VL: DIQLTQSPSSLSASVGDRATITCRASESVDGFGNSFMNWYQQKPGKAPKLLIYLASNLESGVPSRFSGSGSRTDFTLTISSVQPEDFATYYCQQNNEDPYTFGQGTKLEIKR , report pKd.
8.32

Next:
For the binder CBD1039 whole antibody, Fc-silenced human IgG1 (LALAPA) (antibody, V domains shown) VH: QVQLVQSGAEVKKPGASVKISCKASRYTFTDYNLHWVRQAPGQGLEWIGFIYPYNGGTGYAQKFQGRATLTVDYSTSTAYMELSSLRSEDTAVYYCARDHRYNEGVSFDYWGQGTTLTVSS VL: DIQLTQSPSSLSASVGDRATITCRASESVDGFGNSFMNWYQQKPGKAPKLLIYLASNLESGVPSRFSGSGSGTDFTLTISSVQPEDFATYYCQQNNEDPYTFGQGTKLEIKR , report pKd.
8.75
